readoutLabel: melting point

{"columns": ["compound", "melting point"],
 "data": [
  ["O=S(=O)(NCCCN1CCC(Oc2ccc(F)c(F)c2)CC1)c1ccc(-c2ccccn2)s1", "128 to 129 °C"],
  ["Cc1sc(-c2ccc(-c3ccccc3)cc2)nc1CCOc1ccc(OC(C)(C)C(=O)O)cc1", "174 °C"],
  ["CON(c1ccc([N+](=O)[O-])cc1[N+](=O)[O-])S(=O)(=O)c1ccc(C)cc1", "146 to 148 °C"],
  ["COc1ccc(-c2cc(=O)n(Cc3ccc(F)c(F)c3)nc2-c2ccc(OC)cc2)cc1", "155 to 156 °C"],
  ["CC(C)NC(=O)C[C@@H]1CCCNc2ccccc21", "91 to 92 °C"],
  ["Cc1nc(-n2ccc(-c3ccccc3)cc2=O)sc1C(=O)NCc1ccccc1", "235 to 237 °C"]
]}

What melting point value was documented for this compound, `CCCCSCC(=O)c1ccc2[nH]c(=O)[nH]c2c1` ?
211 to 213 °C

For `CCN(CC)CCNc1nc2cccnc2n(-c2ccc(C)cc2)c1=O` , what is its reported melting point?
131 to 132 °C

Given the entry `Nc1ccc2c(-c3ccccc3)c([N+](=O)[O-])oc2c1` , report its measured melting point.
212 to 214 °C

Can you share its melting point? I mean this compound: O=C(CCN1C[C@@H](O)[C@H](Oc2ccccc2)C1)c1ccc(F)cc1 (relative stereo)
77 to 80 °C

Quick one: melting point of C#CCn1c(C(F)(F)F)c(C(C)O)sc1=O (racemic) ?
77 to 78 °C

Any idea what its melting point is? The compound is `O=c1ccoc2cc(OCCCCl)ccc12`
72 to 73 °C

# lookup: melting point of COC(=O)C1=C(C#N)NC(C)=C(C(=O)OC(C)C)C1c1ccccc1[N+](=O)[O-] (stereo not given)
176 °C
